These measurements were taken from PubChem BioAssay (NCI).

system: DU-145 prostate; test: NCI tumour cell line growth inhibition, 48 h
READOUT_KIND: GI50

MOLECULE	GI50
CCCCCCCCCCSC(=N)N	6.63 µM
Oc1ccc(Cl)cc1/C=N\NC(=S)N/N=C/c1cc(Cl)ccc1O	3.67 µM
O=C1/C(=C\c2ccccc2)C2OCC=C3CN4CCC56c7ccccc7N1C5C2C3CC46 (configuration not stated)	> 100 µM

// query GI50 value for entry `O=C(CCCCCCCCC(=O)N/N=C\c1cc(Cl)ccc1O)N/N=C\c1cc(Cl)ccc1O`
0.495 µM

// query GI50 value for entry `NC(=O)c1ccc(N(C(N)=O)c2c(F)cccc2F)nc1-c1ccc(F)cc1F`
> 100 µM

// query GI50 value for entry `COc1cc(Cn2c(-c3ccccc3)cc3c2-c2oncc2CC3)cc(OC)c1`
0.309 µM

// query GI50 value for entry `Nc1c(C(=O)Nc2cccc3ccccc23)sc2nc3c(cc12)C(=O)CCC3`
0.337 µM

// query GI50 value for entry `COc1ccc(C2=Nc3c/c(=C\c4c(O)[nH]c5cc(Cl)ccc45)ccc3=N2)cc1`
6.6 µM

// query GI50 value for entry `O=C(/C=C/c1cccc2ccccc12)Nc1ncc(Cc2ccccc2)s1`
1.61 µM

// query GI50 value for entry `Cc1c(Cl)c(C)c(Cc2c(C)c(Cl)c(C)c(Cl)c2O)c(O)c1Cl`
4.83 µM

// query GI50 value for entry `CCCN1CCC=C(c2ccc(Nc3nc(Nc4ccccc4C(N)=O)c4cc[nH]c4n3)c(C)c2)C1`
3.76 µM

// query GI50 value for entry `CC(/C=N/N=C(N)N)=N\N=C(N)N`
31 µM

====

test system: IGROV1 ovarian; assay: NCI tumour cell line growth inhibition, 48 h
READOUT_KIND: TGI

Some solved cases for reference:
COMPOUND	TGI
Cc1noc(/N=C2\C=C(Nc3onc(C)c3C)C(=O)c3ccccc32)c1C	> 100 µM
COC(=O)/C(=N\Nc1nnc(C)n1N)C(C#N)c1ccccc1 (stereo not drawn)	> 100 µM
COc1ccc(-c2nc(C(=O)c3ccccc3)n(CC(=O)c3ccc(Cl)cc3)c2-c2ccc(OC)cc2)cc1	> 100 µM
Cc1ccc2c(c1C)C(=O)/C(=C/c1cccc(C)c1C(=O)O)C2	> 100 µM
CC(C)=NOC(=O)Nc1cccc2c1OCO2	> 100 µM
COc1ccc(-c2n/c(=C\c3c(O)[nH]c4ccccc34)cc3c2=Nc2ccccc2-3)cc1	47.7 µM
C=C1C(=O)OC2C3OC(C)(CCC(O)C3COC(C)=O)CC(OC(=O)/C(=C/C)COC(C)=O)C12 (stereo not drawn)	2.85 µM

// next entry
// query TGI value for entry CCOC(=O)C(C/C=C/CO)N(C)C(=O)OC(C)(C)C (stereo not drawn)
> 100 µM

====

tested on: MOLT-4 leukemia; experiment: NCI tumour cell line growth inhibition, 48 h
READOUT_KIND: TGI

// query TGI value for entry `O=C(/C=C/c1cccc2ccccc12)Nc1ncc(Cc2ccccc2)s1`
> 100 µM

====

tested on: DMS 114 small cell lung; experiment: NCI tumour cell line growth inhibition, 48 h
READOUT_KIND: TGI (µM)
Lab book: enter the figure in µM, no units written.

COMPOUND	TGI (µM)
CCOC(=O)C1=C(C)N(C2OC(COC(=O)c3ccccc3)C(OC(=O)c3ccccc3)C2OC(=O)c2ccccc2)C(=S)NC1c1ccccc1 (stereo not given)	97.2

// query TGI value for entry `C/C(=N\NC(N)=S)c1ccc(C2CCCCC2)cc1`
29.9

// query TGI value for entry CC1OC(=O)C(C(C)C)NC(=O)C(C(C)C)OC(=O)C(C(C)C)NC(=O)C(C)OC(=O)C(C(C)C)NC(=O)C(C(C)C)OC(=O)C(C(C)C)NC(=O)C(C)OC(=O)C(C(C)C)NC(=O)C(C(C)C)OC(=O)C(C(C)C)NC1=O (stereo not given)
0.0191

// query TGI value for entry `Cn1nc(-c2ccccc2)c(C(=O)/C=C/c2ccc(Cl)cc2)c(N2CCCC2)c1=O`
9.8

// query TGI value for entry `CC(C)(C)Sc1nnc(SC(C)(C)C)c2c(=O)[nH]nc(SC(C)(C)C)c12`
15.5

// query TGI value for entry `c1ccc(-c2ccnc3c2ccc2c(-c4ccccc4)ccnc23)cc1`
12.7

// query TGI value for entry `C/C(=N\NS(=O)(=O)c1ccc([N+](=O)[O-])cc1)c1ccc[n+]([O-])n1`
4.75

// query TGI value for entry COC(=O)C(C(=O)C(N)=O)c1csc(-n2nc(-c3ccccc3)cc2-c2ccccc2)n1 (stereo not given)
25.2
